Consider the following molecules; for each one, report its inhibition.
system: Caspase-6 (Homo sapiens)
procedure-details: human caspase-6 inhibitors, primary screen, biochemical, VEID-R110 fluorescence, single point, set 2 (AID 686996);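 note: 0% = median of neutral control wells and 100% = no fluorescence left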
test-parameters: purified caspase-6, Z-VEID-R110 cleavage fluorescence; at 12.5 µM; stronger effect = higher value
Screen size: about 350,000 compounds; about 1,900 (0.54%) were called active. What follows is part of a selection rich in actives, with near analogues and random picks from the rest.
Report as a plain number; the unit % is understood.

Short answer on Caspase-6 (Homo sapiens) for `Cc1ccc(S(=O)(=O)/N=C2\C=C(NS(=O)(=O)c3ccc(C)cc3)C(=O)c3ccccc32)cc1` , inhibition: 62.8

Short answer on Caspase-6 (Homo sapiens) for `COCCNC(=O)CSc1nc(N)c(NC(=O)c2ccco2)c(=O)[nH]1` , inhibition: 2.38

Short answer on Caspase-6 (Homo sapiens) for `O=C(Nc1ccccc1C(=O)Nc1ccncc1)c1ccc([N+](=O)[O-])cc1` , inhibition: -0.84

Short answer on Caspase-6 (Homo sapiens) for `CC(C)n1ncc2c(C(=O)Nc3ccc(CC#N)cc3)cc(C3CC3)nc21` , inhibition: -2.38

Short answer on Caspase-6 (Homo sapiens) for `N#Cc1c(N2CCCCC2)nc(N)c2c(N)nc(SCC(=O)O)cc12` , inhibition: 43.3

Short answer on Caspase-6 (Homo sapiens) for `O=C(Cc1ccccc1)N[C@H]1C=C[C@H](CC(=O)N2CCCCC2)O[C@@H]1CO` , inhibition: -1.28

Short answer on Caspase-6 (Homo sapiens) for `Cc1ccc(S(=O)(=O)Nc2ccc3c(c2)C(=O)N(C)[C@H]2CC[C@H](CC(=O)O)O[C@H]2CO3)cc1` , inhibition: 0.009

Short answer on Caspase-6 (Homo sapiens) for `C=CC1=C(C(=O)O)N2C(=O)[C@@H](NC(=O)/C(=N/OCC(=O)O)c3csc(N)n3)[C@H]2SC1` , inhibition: 88.2

Short answer on Caspase-6 (Homo sapiens) for `C[C@H](CO)N1C[C@H](C)[C@H](CN(C)C(=O)Nc2cccc(Cl)c2Cl)OCc2ccccc2-c2ccccc2C1=O` , inhibition: 0.728

Short answer on Caspase-6 (Homo sapiens) for `O=C(Nc1ccncc1)c1ccc([N+](=O)[O-])cc1Cl` , inhibition: -0.931

Short answer on Caspase-6 (Homo sapiens) for `O=C(Nc1ccc2cn[nH]c2c1)c1ccc(S(=O)(=O)N2CCOCC2)cc1` , inhibition: 0.612

Short answer on Caspase-6 (Homo sapiens) for O=C(Nc1ccc2c(c1)OCO2)C1CC1(Cl)Cl (configuration not stated) , inhibition: -1.32

Short answer on Caspase-6 (Homo sapiens) for `O=C(C[C@H]1CC[C@@H](NC(=O)Nc2ccc(F)cc2)[C@H](CO)O1)NCc1cccc(F)c1` , inhibition: -1.29

Short answer on Caspase-6 (Homo sapiens) for CC(C)(C)S(=O)N1Cc2cc(C(=O)NCCCN3CCOCC3)nc(-c3cccc(-c4cc5ccccc5o4)c3)c2[C@H]1CCO (some centres not stated) , inhibition: -2.64

Short answer on Caspase-6 (Homo sapiens) for `C[C@@H]1CN([C@H](C)CO)C(=O)c2c(c3ccccc3n2C)-c2ccccc2CO[C@H]1CN(C)S(=O)(=O)c1ccccc1F` , inhibition: -0.557

Short answer on Caspase-6 (Homo sapiens) for `CCN=c1sc(C(=O)Nc2ccccc2)c(C)n1CC` , inhibition: 67.5

Short answer on Caspase-6 (Homo sapiens) for `CN(C)CC(=O)N[C@H]1CC[C@H](CCNC(=O)Nc2ccc(F)cc2)O[C@H]1CO` , inhibition: 2.23

Short answer on Caspase-6 (Homo sapiens) for `O=C(Cn1cnc2ccccc21)N/N=C/c1ccco1` , inhibition: 1.45

Short answer on Caspase-6 (Homo sapiens) for `Cc1nc2ccccc2c(=O)n1-c1ccc(F)c(NC(=O)c2cccs2)c1` , inhibition: -0.817

Short answer on Caspase-6 (Homo sapiens) for `COc1ccc(NC(=O)N(C)C[C@H]2OCCCC[C@H](C)Oc3ccc(NS(C)(=O)=O)cc3C(=O)N([C@H](C)CO)C[C@@H]2C)cc1` , inhibition: -0.91

Short answer on Caspase-6 (Homo sapiens) for `COc1ccccc1-c1cccc(-c2nc(C(=O)N3CCN(C)CC3)cc3c2[C@H](CCO)N([S@@](=O)C(C)(C)C)C3)c1` , inhibition: -1.46

Short answer on Caspase-6 (Homo sapiens) for `O=C(Nc1ccc2c(c1)OCCO2)C1CCCC1` , inhibition: 35.2

Short answer on Caspase-6 (Homo sapiens) for `CCCCCC(=O)Nc1ccc(S(=O)(=O)Nc2ccc(Cl)nn2)cc1` , inhibition: 9.99

Short answer on Caspase-6 (Homo sapiens) for Cc1nnc(SC(C)C(=O)Nc2ccc(S(=O)(=O)NC3CCCCC3)cc2)s1 (configuration not stated) , inhibition: 3.47

Short answer on Caspase-6 (Homo sapiens) for `Cc1nc2ccccc2c(=O)n1-c1ccc(NS(=O)(=O)c2ccc(F)cc2F)cc1` , inhibition: 49.9

Short answer on Caspase-6 (Homo sapiens) for `N#C[C@H]1[C@@H](c2ccc(C3=CCCCC3)cc2)[C@@H](CO)N1C(=O)Cc1ccncc1` , inhibition: 0.643

Short answer on Caspase-6 (Homo sapiens) for `CC(C)n1ncc2c(C(=O)NCc3ccccc3CN(C)C)cc(C3CC3)nc21` , inhibition: -1.64

Short answer on Caspase-6 (Homo sapiens) for `CC(C)(C)[S@@](=O)N1Cc2cc(C(=O)O)nc(-c3cccc(-c4cccc(F)c4)c3)c2[C@H]1CCO` , inhibition: -2.52

Short answer on Caspase-6 (Homo sapiens) for `COc1ccc(S(=O)(=O)N(CC(=O)N/N=C/c2ccc(C(=O)O)cc2)Cc2ccccc2)cc1OC` , inhibition: 3.65

Short answer on Caspase-6 (Homo sapiens) for CC(C)(C)S(=O)N1Cc2cc(C(=O)O)nc(-c3cccc(-c4cc5ccccc5o4)c3)c2[C@@H]1CCO (some centres not stated) , inhibition: 37.1

Short answer on Caspase-6 (Homo sapiens) for `O=C(NC[C@@H]1N[C@@H](CO)[C@H]1c1ccc(-c2cccnc2)cc1)c1cccc(F)c1` , inhibition: 0.599

Short answer on Caspase-6 (Homo sapiens) for `COc1ccc(NC(=O)c2sc(=O)n(Cc3ccc(S(=O)(=O)N(C)C)cc3)c2C)cc1` , inhibition: -0.522

Short answer on Caspase-6 (Homo sapiens) for `O=C(Nc1nc2ccc([N+](=O)[O-])cc2s1)c1ccncc1` , inhibition: 65.7

Short answer on Caspase-6 (Homo sapiens) for `C[C@@H]1CN([C@@H](C)CO)C(=O)Cc2cc(NC(=O)CCN3CCOCC3)ccc2O[C@H]1CN(C)S(=O)(=O)c1ccccc1` , inhibition: -0.675

Short answer on Caspase-6 (Homo sapiens) for `CC(C)(C)[S@](=O)N1Cc2cc(C(=O)N3CCCCC3)nc(-c3cccc(-c4ccccc4F)c3)c2[C@@H]1CCO` , inhibition: -3.88

Short answer on Caspase-6 (Homo sapiens) for `COc1ccc(Cl)cc1N(CC(=O)N1CCCCC1)S(C)(=O)=O` , inhibition: 5.56

Short answer on Caspase-6 (Homo sapiens) for `Cc1c(C(=O)Nc2ccccc2)sc2nc3n(c(=O)c12)CCCCC3` , inhibition: 14.7

---

system: Caspase-6 (Homo sapiens) (UniProt P55212)
Sequence (P55212 24-179 limits assumed): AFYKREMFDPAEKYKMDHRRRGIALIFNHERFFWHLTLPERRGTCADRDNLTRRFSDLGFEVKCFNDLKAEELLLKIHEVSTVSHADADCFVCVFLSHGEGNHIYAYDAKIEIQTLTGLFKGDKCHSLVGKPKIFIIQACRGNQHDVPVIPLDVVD
Sequence (P55212 194-293 limits assumed): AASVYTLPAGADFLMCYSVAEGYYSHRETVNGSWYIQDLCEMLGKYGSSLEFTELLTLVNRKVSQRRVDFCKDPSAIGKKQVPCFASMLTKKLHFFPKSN
procedure-details: human caspase-6 inhibitors, primary screen, biochemical, VEID-R110 fluorescence, single point, set 2 (AID 686996);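 note: 0% = median of neutral control wells and 100% = no fluorescence left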
test-parameters: purified caspase-6, Z-VEID-R110 cleavage fluorescence; at 12.5 µM
Screen size: about 350,000 compounds; about 1,900 (0.54%) were called active.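 How the source made its calls: active means mean inhibition across replicates at least about 35%, with every replicate also reaching that limit (limit read from the data); inconclusive means only one of the two criteria met; inactive means neither criterion met.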 Shown is part of a subset that was picked to be rich in actives.
Can you answer with just one of these options? active, inactive

**Query** Outcome logged for `O=C(COC(=O)c1cnc(Cl)c(Cl)c1)NCc1ccco1` in this assay:
**Result** inactive

**Query** Outcome logged for CC(C)CN1C(=O)CN(S(C)(=O)=O)CC1(C)C(=O)NCc1ccccc1 (stereo not drawn) in this assay:
**Result** inactive

**Query** Outcome logged for `C[C@@H]1CN([C@@H](C)CO)C(=O)c2cc(NC(=O)Nc3cccc4ccccc34)ccc2O[C@@H]1CN(C)C(=O)NC1CCCCC1` in this assay:
**Result** inactive

**Query** Outcome logged for `CCC(=O)N(C)C[C@@H]1Oc2cc(C#CCN(C)C)ccc2S(=O)(=O)N([C@H](C)CO)C[C@H]1C` in this assay:
**Result** inactive

**Query** Outcome logged for `Cc1noc(C)c1NC(=O)Nc1ccc2c(c1)C(=O)N([C@H](C)CO)C[C@@H](C)[C@@H](CN(C)Cc1ccccc1)O2` in this assay:
**Result** inactive

**Query** Outcome logged for `C[C@H]1CN([C@@H](C)CO)C(=O)c2cc(-c3ccncc3)cnc2O[C@@H]1CN(C)C(=O)c1cccc(F)c1` in this assay:
**Result** inactive

**Query** Outcome logged for `COc1ccc(OC)c(NC(=O)Cc2cccs2)c1` in this assay:
**Result** inactive

**Query** Outcome logged for CC1(C(=O)Nc2ccc3c(c2)OCCO3)CN(S(C)(=O)=O)CC(=O)N1Cc1cccc(F)c1 (stereo not drawn) in this assay:
**Result** inactive

**Query** Outcome logged for CC(Oc1ccc2c(-c3ccccc3)cc(=O)oc2c1)C(=O)NC(Cc1c[nH]c2ccccc12)C(=O)O (stereo not drawn) in this assay:
**Result** inactive

**Query** Outcome logged for `C[C@@H]1CCCCO[C@H](CN(C)C(=O)Cc2ccccc2)[C@H](C)CN([C@H](C)CO)C(=O)c2cc(NS(=O)(=O)c3cn(C)cn3)ccc2O1` in this assay:
**Result** inactive

**Query** Outcome logged for `O=C(COC(=O)c1ccccc1O)NCc1ccco1` in this assay:
**Result** active

**Query** Outcome logged for `CCOc1ccccc1NC(=O)Cc1cccs1` in this assay:
**Result** active

**Query** Outcome logged for `O=C(C[C@@H]1CC[C@H]2[C@@H](COC[C@H](O)CN2C(=O)Nc2ccccc2)O1)NCCc1ccncc1` in this assay:
**Result** inactive

**Query** Outcome logged for `C[C@H]1CN([C@@H](C)CO)C(=O)Cc2cc(NS(=O)(=O)c3ccccc3)ccc2O[C@H]1CN(C)Cc1ccc(C(=O)Nc2ccccc2N)cc1` in this assay:
**Result** inactive

**Query** Outcome logged for `CCOC(=O)c1ccc(NC(=O)Cc2cccs2)cc1` in this assay:
**Result** inactive

**Query** Outcome logged for CCC(C)CN1C(=O)CN(S(C)(=O)=O)CC1(C)C(=O)Nc1ccc2c(c1)OCCO2 (stereo not drawn) in this assay:
**Result** active

**Query** Outcome logged for `C[C@@H]1CN([C@H](C)CO)C(=O)Cc2cc(NC(=O)Cc3ccccc3)ccc2O[C@H]1CN(C)S(=O)(=O)c1cccs1` in this assay:
**Result** inactive

**Query** Outcome logged for N#CC1=C(N)Oc2n[nH]c(CSc3ccccc3)c2C12C(=O)Nc1ccccc12 (stereo not drawn) in this assay:
**Result** inactive
